Target: T1, human LAG3-Fc (R&D Systems #2319-L3) (human, UniProt P18627 23-450)
T1 construct: Bought protein; also called Human LAG3 (Biacore)
T1 sequence: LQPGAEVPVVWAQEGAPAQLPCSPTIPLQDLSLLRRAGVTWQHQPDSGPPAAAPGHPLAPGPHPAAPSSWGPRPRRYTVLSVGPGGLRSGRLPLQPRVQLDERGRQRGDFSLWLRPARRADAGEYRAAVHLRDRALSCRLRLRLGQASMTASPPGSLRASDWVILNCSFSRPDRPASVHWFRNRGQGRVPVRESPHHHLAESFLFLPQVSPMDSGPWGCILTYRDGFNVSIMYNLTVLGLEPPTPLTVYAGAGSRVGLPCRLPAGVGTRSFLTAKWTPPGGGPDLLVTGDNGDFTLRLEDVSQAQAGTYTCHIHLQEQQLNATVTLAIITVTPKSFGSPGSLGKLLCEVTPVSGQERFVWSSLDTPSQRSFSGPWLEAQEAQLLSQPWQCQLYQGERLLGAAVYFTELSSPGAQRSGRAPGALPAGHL
Experiment: SPR (Biacore), antibody captured by anti-Flag, LAG3-Fc as analyte, 25 C
pKd: −log10 of the molar value.
Tick 1 if pKd is 8 or greater. Tick 0 if pKd is less than 8.

The examples below pair each entry with its known result.
BINDER	CLASS_ASSIGNMENT
h5G11-2 (scFv, V domains shown) VH: QVQLVQSGAEVKKPGSSVKVSCKASGFNIKDYYMHWVRQAPGQGLEWIAWIDPENGDTEYAPKFQGRVTITADESTSTAYMELSSLRSEDTAVYYCNAPDALDYWGQGTLVTVSS VL: DVVMTQSPLSLPVTLGQPASISCKSSQSLLDSDGKTYLNWFQQRPGQSPRRLIYLVSKLDSGVPDRFSGSGSGTDFTLKISRVEAEDVGVYYCWQGSHFPQTFGQGTKVEIK	0
SRP1627-A02 (scFv, V domains shown) VH: QVQLVQSGAEVKKPGSSVKVSCKASGFNINDYFMHWVRQAPGQGLEWIARIDPWNGDTEYAPKFQGRVTITADESTSTAYMELSSLRSEDTAVYYCGMSDALDYWGQGTLVTVSS VL: DVVMTQSPLSLPVTLGQPASISCKSSQSLLDSDGKTYLNWFQQRPGQSPRRLIYLVSKLDSGVPDRFSGSGSGTDFTLKISRVEAEDVGVYYCSHGNPVPQTFGQGTKVEIK	0

# next binder below
Qu. Is pKd at least 8? Consider SRP1449-B03 (scFv, V domains shown) VH: QVQLVESGGGVVQPGRSLRLSCAASGFTFSSYGMHWVRQAPGKGLEWVAAIWYDASYKYYADSVKGRFTISRDNSKNTLYLQMNSLRAEDTAVYYCAREWAVASWDYALDVWGQGTTVTVSS VL: EIVLTQSPGTMSLSPGERATLSCRASQSVSSSYLAWYQQKPGQAPRLLIYGASSRATGIPDRFSGSGSGTDFTLTISRLEPEDFAVYYCQQYDRSPLTFGPGTKVDIK
Ans. 1
